Data origin, for the record: PubChem BioAssay (NCATS)

experiment: Quantitative High-Throughput drug screen in 47 multiple myeloma cell lines against the NCATS MIPE library collection: OCIMY1_PLB cell viability assay (AID 1918979); details: OCI-MY1 myeloma viability, CellTiter-Glo ATP, 48 h; series mostly up to 45.8 µM; note: nearly all actives have a fitted effect of over 35% in size
Inconclusive results are not listed. Calls of active or inactive are those of the source. Calls come from the whole dose curve; as a rule, active = well fitted cell-killing curve with a large enough effect; inconclusive = small, poorly fitted or top-dose-only effect, or effect the other way; inactive = no such curve, though single readings can be large or run the other way.
Pick from t (active), f (inactive) when you respond.

Examples with answers:
- COMPOUND: "COc1ccc(Cc2nccc3cc(OC)c(OC)cc23)cc1OC"
  CATEGORY LABEL: "t"
- COMPOUND: "Cc1nc(N)sc1-c1ccnc(Nc2ccc(N3CCOCC3)cc2)n1"
  CATEGORY LABEL: "t"
- COMPOUND: "Cc1cc(OCCCc2c(C(=O)O)n(Cc3cccnc3)c3c(-c4c(COc5ccc(N6CCN([S+](C)(=O)[O-])CC6)cc5)nn(C)c4C)cccc23)cc(C)c1Cl"
  CATEGORY LABEL: "t"
- COMPOUND: "C[C@@H]1CCN(C(=O)CC#N)C[C@H]1N(C)c1ncnc2[nH]ccc12"
  CATEGORY LABEL: "f"
- COMPOUND: "O=C1NC(=O)C(=Cc2ccc3c(c2)OC(F)(F)O3)S1"
  CATEGORY LABEL: "f"

// return assay outcome for CCn1c(C(=O)N(C2CC2)C2CC2)cc2c3c(ncn3C)c(Nc3cc(C)n(C)n3)nc21 f

// return assay outcome for CCC(CC)[C@H](NC(C)=O)[C@@H]1[C@H](O)[C@@H](C(=O)O)C[C@@H]1N=C(N)N f

// return assay outcome for C[N+]1(C)[C@@H]2CC(OC(=O)[C@H](CO)c3ccccc3)C[C@H]1[C@H]1O[C@@H]12 (some centres not stated) f

// return assay outcome for Cc1cnc(C(=O)O)c[n+]1[O-] f

// return assay outcome for CNC(=O)c1ccc2cc(C3(O)CCn4cncc43)ccc2c1 (configuration not stated) f

// return assay outcome for Cc1ccc(C(=O)Nc2cccc(C(F)(F)F)c2)cc1Nc1nc(-c2cccnc2)nc2c1cnn2C t

// return assay outcome for O=C1C(Cl)=C(NCCN2CCOCC2)C(=O)c2ncccc21 t

// return assay outcome for O=C1c2ccccc2-[n+]2ccc3c([nH]c4ccccc43)c21 t
